# test target: T1, human melanocortin 1 receptor (human, UniProt Q01726 1-317)
# T1 construct: whole, on cells; also called hMC1R; hMC1 receptor
# T1 sequence (Q01726 whole entry): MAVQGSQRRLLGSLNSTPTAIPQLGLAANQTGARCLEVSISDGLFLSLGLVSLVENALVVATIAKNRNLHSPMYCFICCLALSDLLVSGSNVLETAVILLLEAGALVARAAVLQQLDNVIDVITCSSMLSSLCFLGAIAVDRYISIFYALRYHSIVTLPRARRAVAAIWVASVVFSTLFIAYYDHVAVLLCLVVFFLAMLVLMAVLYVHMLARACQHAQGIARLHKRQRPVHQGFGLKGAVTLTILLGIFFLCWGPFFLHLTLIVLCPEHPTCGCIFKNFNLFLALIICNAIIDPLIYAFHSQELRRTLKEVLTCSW
# method summary: competition binding vs [125I]-NDP-α-MSH, whole HEK293 cells stably expressing the receptor
measured attribute: pIC50
One number for each entry, as −log10 of the molar value.

// query pIC50 value for entry LDHXRWK (N-terminal acetyl; Nle at 4; D-Nal(2') (nal) at 7; side-chain lactam Asp5-Lys10; C-terminal amide; backbone N-methyl on His6, nal7, Arg8, Trp9 and Lys10 (α-MSH 4-10 numbering), also called Penta-N-methylated compound 32) [Peptide 32: Ac-Nle-c[Asp-(NMe)His-(NMe)nal-(NMe)Arg-(NMe)Trp-(NMe)Lys]-NH2]
7.17
